Cited source for all entries: PubChem BioAssay (NCI)

Assay: NCI Yeast Anticancer Drug Screen. Data for the rad50 strain (AID 155);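 also: 0% = growth of vehicle-only cultures of the same strain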
Details: S. cerevisiae rad50 strain growth inhibition; at 5.0 µM (retest, dose inferred, filed as 0.5); hits give high values
The panel holds about 79,000 compounds, 15% with a hit somewhere; the sample as a whole holds those more often.
Record class 1 whenever growth inhibition is at 10% or higher; record class 0 when lower.

In [3]: df
Out[3]:
                                   compound  assigned_label
0  CCOC(=O)C(Cc1c[nH]c2cc([N+](=O)[O-])ccc12)NS(=O)(=O)c1ccc2ccccc2c1 (stereo unspecified)         class 0
1  COC(=O)C1=COC(C)C2C[n+]3ccc4c([nH]c5ccccc54)c3CC12 (stereo unspecified)         class 1
2            COc1ccc2cc(C(C)=O)c3ccccc3c2c1         class 1
3                      COc1cc(O)ccc1C(=S)SC         class 0
4              c1ccc2nc3c(ccc4ccccc43)cc2c1         class 1
5  CCCC1CCC(=C2C(=O)CCC2=O)O1 (stereo unspecified)         class 0

====

Experiment: NCI Yeast Anticancer Drug Screen. Data for the mec2-1 strain (AID 157)
Details: S. cerevisiae mec2-1 strain, at 50.0 µM (retest, dose inferred, filed as 5.0), hits give high values
Protocol: Growth inhibition of yeast strains with defined genetic alterations is measured as a screen for potential anti-cancer activity. Selected strains with alterations in DNA damage repair or cell cycle control were exposed to compounds and growth inhibition was measured relative to vehicle treated controls. The strain used in this assay is mec2-1
This is part of a sample that, as a whole, favours compounds with a hit. Of some 79,000 tested, about 15% had one in any assay. Active and inactive are the calls of the source. Rule as the data show it: active = growth inhibition above about 70%; inactive = the rest.
Item-by-item account of growth inhibition

compound	growth inhibition
CN1CCN(CN2C(=O)C3C4C=CC(C3C2=O)C2C3C(=O)N(CN5CCN(C)CC5)C(=O)C3C42)CC1 (stereo not drawn)	30% (inactive)
Cn1c2nc3ccccc3c-2cc2ccccc21	75% (active)
COC(=O)C1=COC(C)C2C[n+]3ccc4c([nH]c5ccccc54)c3CC12 (stereo not drawn)	25% (inactive)
CCOC(=O)c1c(CN2CCNCC2)nc2ccc(Cl)cc2c1-c1ccccc1	35% (inactive)
OC(CF)(c1ccc(Cl)cc1)c1ccc(Cl)cc1	75% (active)
N#CCCC(CCC#N)(CCC#N)C(=O)c1ccccc1	-6% (inactive)
O=[N+]([O-])Cc1cnc2nncn2n1	97% (active)
Cc1ccc(S(=O)(=O)N/N=C2/C(=O)c3cccc4cccc2c34)cc1	64% (inactive)
C1=C(CN2CCCCC2)COc2ccccc21	45% (inactive)
O=[N+]([O-])c1ccc(SSc2ccc([N+](=O)[O-])cc2)cc1	99% (active)
CC(=O)OC1OC(=O)C(C)(C(C)=O)C1C (stereo not drawn)	96% (active)
c1cc2c3c(cccc3c1)-c1cnccc1-2	84% (active)
CCO/C(=C\C=O)C1CCC2C3CC=C4CC(OC(C)=O)CCC4(C)C3CCC12C (stereo not drawn)	75% (active)
Nc1ccccc1Oc1ccc(Cl)cc1Cl	61% (inactive)
Cc1c(C)c(CCl)c(C)c(C)c1CCl	96% (active)
O=C(O)COc1ccc(OCC(=O)O)cc1	-2% (inactive)
O=S(=O)(CC(Cl)c1ccccc1)c1nc2ccccc2s1 (stereo not drawn)	2% (inactive)
O=[N+]([O-])c1ccc(Cl)c(C2CC(c3cccc4ccccc34)=Nc3ccccc3S2)c1 (stereo not drawn)	2% (inactive)
COC1/C=C/OC2(C)Oc3c(C)c(O)c4c(c3C2=O)C(=O)C=C(NC(=O)/C(C)=C\C=C\C(C)C2OC(C)(C)OC(C2C)C(C)C(OC(C)=O)C1C)C4=O (stereo not drawn)	79% (active)
CCCCCCCCC(Sc1n[nH]c(=O)[nH]c1=O)C(=O)OCC (stereo not drawn)	70% (active)
O=C(CON1C(=O)c2ccccc2C1=O)c1ccccc1	29% (inactive)
C=C1CC2(CC(c3ccccc3OC)OC(c3ccccc3OC)C2)OC1=O (stereo not drawn)	10% (inactive)
CN1CCCc2cc(/C=C\c3ccnc4ccccc34)ccc21	97% (active)
